Experimental Target: T1, B7-H2mIg (extracellular domain of human B7-H2 linked to mouse IgG2a Fc portion) (human, UniProt O75144 19-256)
T1 sequence: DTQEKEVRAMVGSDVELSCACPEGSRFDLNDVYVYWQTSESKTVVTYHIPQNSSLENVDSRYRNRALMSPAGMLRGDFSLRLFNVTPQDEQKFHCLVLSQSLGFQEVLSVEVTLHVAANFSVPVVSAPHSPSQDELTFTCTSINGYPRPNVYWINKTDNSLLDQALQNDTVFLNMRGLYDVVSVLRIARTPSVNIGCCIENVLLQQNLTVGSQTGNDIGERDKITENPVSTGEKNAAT
Protocol: ELISA
Parameter Measured: percentage of B7-H2 binding activity (of ICOSIg) (%)
Numbers only, in %.

ICOSIg mutant Q50S (Fc fusion) EINGSANYEMFIFHNGGVQILCKYPDIVQSFKMQLLKGGQILCDLTKTKGSGNTVSIKSLKFCHSQLSNNSVSFFLYNLDHSHANYYFCNLSIFDPPPFKVTLTGGYLHIYESQLCCQLK = 6

Would you kindly look at the next entry?
Note to self: percentage of B7-H2 binding activity (of ICOSIg) recorded for ICOSIg mutant Q49S (Fc fusion) EINGSANYEMFIFHNGGVQILCKYPDIVSQFKMQLLKGGQILCDLTKTKGSGNTVSIKSLKFCHSQLSNNSVSFFLYNLDHSHANYYFCNLSIFDPPPFKVTLTGGYLHIYESQLCCQLK was 33
